# Test system: TRPM6
# Condition Notes: concentration: 1 μM, replicates: in singlicate; n = 1;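 also: KINOMEscan kinase panel screen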

| Molecule | Unit Symbol | %Inh |
| --- | --- | --- |
| Cc1cccc(-c2nc(Nc3ccc4[nH]nnc4c3)c3ccccc3n2)n1 [GW867587] | % | 0 |
| Fc1cccc(COc2ccc(Nc3ncnc4sc(-c5ccc[nH]5)cc34)cc2Cl)c1 [GW707818] | % | 30 |
| CCc1nc(-c2cccc(N(C)S(=O)(=O)c3ccccc3)c2)c(-c2ccnc(Nc3ccc(N4CCN(C(C)=O)CC4)nc3)n2)s1 [GSK1645895] | % | 56 |
| CC(C)N1CCC(n2cnc(-c3ccc(F)cc3)c2-c2ccnc(N)n2)CC1 [SB-223132] | % | 0 |
| CC(C)(C)OC(=O)NC1CCCN(c2cc(-c3ccc4c(N)n[nH]c4c3)nc(N)n2)C1 (centres unmarked) [GSK2286096] | % | 39 |
| CNc1nccc(-c2c(-c3ccc(F)cc3)ncn2C2CCN(C)CC2)n1 [SB-222903] | % | 0 |
| O=C(c1ccc(-c2cc(-c3c[nH]nc3-c3ccccn3)ccn2)cc1)N1CCCC1 [GW792479] | % | 0 |
| CC(=O)Nc1n[nH]c2ncc(-c3ccccc3)cc12 [SB-548492] | % | 0 |

###

# System: ROCK1
# Condition Notes: concentration: 1 μM, replicates: in singlicate; n = 1
Rule: %Inh below 20% gives condition met, anything at or above gives condition not met.

| Compound | Classification |
| --- | --- |
| CN1CCC(n2cnc(-c3ccc(F)cc3)c2-c2ccnc(NC3CCNCC3)n2)CC1 [SB-229482] | condition not met |
| Cc1ccc(NC(=O)c2cccc(C#N)c2)cc1-c1ccc(C(=O)Nc2ccncc2)cc1 [GSK1398463] | condition not met |
| Cn1ccc2ncnc(Oc3ccc(NC(=O)Nc4cccnc4)c(Cl)c3)c21 | condition met |
| CNc1nccc(-c2c(-c3ccc(F)cc3)ncn2C2CCN(C)CC2)n1 [SB-222903] | condition not met |
| COc1ccc(Nc2nccc(N3CCC(NC(=O)Nc4ccc5c(c4)OCO5)C3)n2)cc1 (centres unmarked) [GSK1379745] | condition met |
| Cc1ccc(C)c(NC(=O)NCCNc2ccnc(Nc3ccc(F)cc3)n2)c1 [GSK1379878] | condition met |
| Cn1cc(-c2ccc3c(c2)CCN3C(=O)Cc2cccc(C(F)(F)F)c2)c2c(N)ncnc21 [GSK2606414] | condition met |
| c1ccc(-c2ccc3c(-c4ccnc(Nc5ccc6c(c5)OCCO6)n4)cnn3n2)cc1 [GW818941] | condition not met |
| Cc1cc(N2CCC(NS(=O)(=O)c3ccc(F)cc3)CC2)nc(Nc2cccc(C#N)c2)n1.O=C(O)C(F)(F)F [GSK1653537] | condition met |
| COc1cc2ncnc(Nc3ccc(OCc4ccccc4Br)c(Cl)c3)c2cc1OC.Cl [GI261590] | condition met |
| FC(F)(F)c1ccc(-c2cc(-c3c[nH]nc3-c3ccccn3)ccn2)cc1 [GW599550] | condition not met |
| Cn1ccc2ncnc(Nc3ccc(Oc4cccc(Cl)c4)c(Cl)c3)c21 | condition met |
| O=C(Nc1ccccc1F)NC1CCN(c2ccnc(Nc3ccc(F)cc3)n2)C1 (centres unmarked) [GSK1379722] | condition met |
| COc1ccc(Nc2nccc(N3CCC(NC(=O)c4cccc(NC(C)=O)c4)C3)n2)cc1 (centres unmarked) [GSK1379732] | condition not met |
| Nc1n[nH]c2nnc(-c3ccccc3)cc12 [SB-517389] | condition met |
| C[C@@H]1CCN(C(=O)CO)C[C@@H]1N(C)c1ncnc2[nH]ccc12 | condition met |
| CS(=O)(=O)CCNCc1nc(-c2ccc3ncnc(Nc4ccc(OCc5cccc(F)c5)c(Cl)c4)c3c2)cs1.Cl [GW583340] | condition met |
| O=C(CCO)NCCn1ccc2ncnc(Nc3ccc(Oc4cccc(C(F)(F)F)c4)c(Cl)c3)c21 | condition met |
| Nc1nc(-c2ccc3c(N)n[nH]c3c2)cc(N2CCCCC2)n1 [GSK2228768] | condition met |
| O=C(NCCCN1CCCC1=O)c1cnc(NCc2cc(Cl)ccc2Cl)nc1NC1CCNCC1 | condition met |
| COc1ccc(-c2oc3ncnc(N)c3c2-c2ccc(OC)cc2)cc1 [SB-589132] | condition not met |
| Cl.c1ccc(Cn2ccc3cc(Nc4ncnc5ccccc45)ccc32)cc1 [GW275568] | condition met |
| CCc1nc(-c2cccc(N(C)S(=O)(=O)c3ccccc3)c2)c(-c2ccnc(Nc3ccc(N4CCN(C(C)=O)CC4)nc3)n2)s1 [GSK1645895] | condition met |
| Nc1nc(-c2ccccn2)c(-c2ccnc3ccccc23)s1 [GW548057] | condition not met |
| COC(=O)c1c(-c2ccccc2)c2cc(Cl)ccc2c(=O)n1Cc1ccc(S(C)(=O)=O)cc1 | condition met |
| COc1ccc(NC(=O)Nc2ccc(C)c(-c3ccc(C(=O)Nc4ccncc4)cc3)c2)cc1 [GSK1398475] | condition met |
| Fc1cccc(COc2ccc(Nc3ncnc4nn5ccccc5c34)cc2Cl)c1 [GW689066] | condition not met |
| O=C(c1ccc(-c2cc(-c3c[nH]nc3-c3ccccn3)ccn2)cc1)N1CCCC1 [GW792479] | condition met |
| CCC(CC)(CC)n1cnc2c(N)ncnc21 [SKF-97620] | condition not met |
| CC(=O)Nc1n[nH]c2ncc(-c3ccccc3)cc12 [SB-548492] | condition met |
| Cl.c1ccc(Cn2ncc3cc(Nc4ncnc5ccccc45)ccc32)cc1 [GW273749] | condition met |
| COc1ccc(NC(=O)c2ccc(-c3cc(-c4nnc(C)o4)ccc3C)cc2)cc1 [GW595885] | condition met |
| CC(C)(C)OC(=O)NC1CCCN(c2cc(-c3ccc4c(N)n[nH]c4c3)nc(N)n2)C1 (centres unmarked) [GSK2286096] | condition met |
| COC(=O)c1cccc(NC(=O)NCCNc2ccnc(Nc3ccc(F)cc3)n2)c1 [GSK1379883] | condition not met |
